Read-out: Monocyte Chemoattractant Protein-1 (MCP1), CCL2 (gene 6347)
Experiment: BSK_3C_MCP1: BioMAP Diversity Plus: 3C Assay for Monocyte Chemoattractant Protein-1 (MCP1) Biomarker Activity (AID 2283017)
Settings: primary human endothelial cells (HUVEC); actives raise or lower the signal
Active and inactive are the calls of the source. The calls were made as follows: active = hit-call score of the fitted dose curve at least 0.9, where 1 is the maximum; inactive = score below 0.9.
Returns: one label drawn from 1 = active, -1 = inactive

O=c1[nH]c(Cl)c(Cl)cc1Cl
-1
Oc1cc(Cl)ccc1Cl
-1
CC(C)CCCCCCCOP(=O)(Oc1ccccc1)Oc1ccccc1
1
CCCOC(=O)c1ccccc1C(=O)OCCC
1
[Cd+2].[Cl-].[Cl-]
-1
O=[N+]([O-])C=Cc1ccccc1
1
Cc1ccc(OP(=O)(Oc2ccc(C)cc2)Oc2ccc(C)cc2)cc1 (tested in a mixture with another compound)
1
CCCC[N+](CCCC)(CCCC)CCCC
-1
Clc1ccc(-c2ccccc2)cc1
-1
CC(C)COP(=O)(OCC(C)C)OCC(C)C
-1

Status in this test for COCC(=O)N(c1c(C)cccc1C)N1CCOC1=O ?
-1

Next compound: CC1(C)[C@H](C(=O)O[C@H](C#N)c2cccc(Oc3ccccc3)c2)[C@@H]1C=C(Br)Br
-1

Next compound: c1ccc(Nc2ccc3ccccc3c2)cc1
1

Next compound: COc1ccc(CO)cc1
-1

Next compound: O=S(=O)(c1ccccc1)c1ccccc1
-1

Next compound: CC(C)(c1cc(Cl)c(O)c(Cl)c1)c1cc(Cl)c(O)c(Cl)c1
1

Next compound: CNC(=O)Oc1cc(C)c(SC)c(C)c1
-1

Next compound: N#CCCCCC#N
-1

Next compound: CC(C)(C)C(O)C(Oc1ccc(-c2ccccc2)cc1)n1cncn1 (centres undefined)
1
